Study Target: ATP-dependent translocase ABCB1 (Homo sapiens)
Sequence (P08183 whole entry): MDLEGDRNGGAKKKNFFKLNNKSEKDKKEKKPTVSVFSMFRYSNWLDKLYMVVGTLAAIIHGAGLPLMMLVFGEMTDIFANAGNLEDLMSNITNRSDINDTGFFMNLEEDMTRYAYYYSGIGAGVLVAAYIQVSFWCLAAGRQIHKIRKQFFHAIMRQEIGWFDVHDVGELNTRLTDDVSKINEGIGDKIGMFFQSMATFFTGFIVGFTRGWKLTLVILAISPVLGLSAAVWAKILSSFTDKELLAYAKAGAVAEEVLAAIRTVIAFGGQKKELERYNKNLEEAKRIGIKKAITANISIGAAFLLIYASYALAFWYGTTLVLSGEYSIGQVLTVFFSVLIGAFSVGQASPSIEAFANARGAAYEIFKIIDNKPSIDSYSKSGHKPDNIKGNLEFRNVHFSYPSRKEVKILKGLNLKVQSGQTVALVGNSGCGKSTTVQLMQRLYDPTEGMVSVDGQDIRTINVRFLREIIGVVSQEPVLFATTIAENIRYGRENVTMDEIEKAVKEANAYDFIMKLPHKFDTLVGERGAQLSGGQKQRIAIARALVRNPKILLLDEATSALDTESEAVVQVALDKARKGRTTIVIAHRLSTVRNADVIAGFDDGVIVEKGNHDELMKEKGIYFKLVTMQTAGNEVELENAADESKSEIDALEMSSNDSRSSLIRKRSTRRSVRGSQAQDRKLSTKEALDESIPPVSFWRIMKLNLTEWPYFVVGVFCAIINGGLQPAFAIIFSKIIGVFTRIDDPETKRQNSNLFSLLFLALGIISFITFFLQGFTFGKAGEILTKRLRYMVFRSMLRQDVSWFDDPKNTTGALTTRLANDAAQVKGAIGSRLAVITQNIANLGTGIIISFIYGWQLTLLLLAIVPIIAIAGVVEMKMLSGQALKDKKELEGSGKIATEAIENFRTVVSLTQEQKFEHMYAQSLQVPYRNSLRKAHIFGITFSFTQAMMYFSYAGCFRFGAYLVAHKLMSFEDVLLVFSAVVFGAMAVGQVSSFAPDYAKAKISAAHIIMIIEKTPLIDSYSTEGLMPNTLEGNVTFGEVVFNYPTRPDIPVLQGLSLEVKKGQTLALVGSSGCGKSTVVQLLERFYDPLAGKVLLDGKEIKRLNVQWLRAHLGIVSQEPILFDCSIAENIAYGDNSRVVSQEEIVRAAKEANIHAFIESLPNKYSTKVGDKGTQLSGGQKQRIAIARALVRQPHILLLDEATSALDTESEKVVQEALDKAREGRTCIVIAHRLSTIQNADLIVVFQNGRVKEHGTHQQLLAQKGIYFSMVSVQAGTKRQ
Measurement Notes: Drug transport assessed as MDR1 -mediated transcellular transport ratio by P-gp transport assay
Type: ADME
Measured Quantity: Ratio
Just the number, please.

# Compound Structure, Ratio
records = [
    ("C[C@@H](NC(=O)C1(NC(=O)c2cn[nH]c2)CC1)c1ccc(-n2nc(Cl)c3ccccc32)cc1F", 55.6),
]

Q: Output Ratio of COC(=O)c1c(F)cccc1-c1ccc(CNC(=O)C2(NC(=O)C(F)(F)F)CC2)c(F)c1
Ans: 4.1

Q: Output Ratio of Cc1cncc(C(=O)NC2(C(=O)N[C@H](C)c3ccc(-n4nc(Cl)c5ccccc54)cc3F)CC2)c1
Ans: 1.9

Q: Output Ratio of COc1cc(C(=O)NC2(C(=O)N[C@H](C)c3ccc(-n4nc(Cl)c5ccccc54)cc3F)CC2)on1
Ans: 1.6

Q: Output Ratio of C[C@@H](NC(=O)C1(NC(=O)c2ccc(Br)nc2)CC1)c1ccc(-n2nc(Cl)c3ccccc32)cc1F
Ans: 2.2

Q: Output Ratio of C[C@@H](NC(=O)C1(NC(=O)c2cncc(Cl)n2)CC1)c1ccc(-n2nc(Cl)c3ccccc32)cc1F
Ans: 1.8
